# ASSAYED SYSTEM: h5-HT transporter (Homo sapiens)
# Construct: Human platelet membranes (Oceanix Biosciences Corporation, Hanover, Md., USA) were thawed; tissue Oceanix Biosciences Corporation; host or cells: human platelet membranes
# Sequence (P31645 whole entry): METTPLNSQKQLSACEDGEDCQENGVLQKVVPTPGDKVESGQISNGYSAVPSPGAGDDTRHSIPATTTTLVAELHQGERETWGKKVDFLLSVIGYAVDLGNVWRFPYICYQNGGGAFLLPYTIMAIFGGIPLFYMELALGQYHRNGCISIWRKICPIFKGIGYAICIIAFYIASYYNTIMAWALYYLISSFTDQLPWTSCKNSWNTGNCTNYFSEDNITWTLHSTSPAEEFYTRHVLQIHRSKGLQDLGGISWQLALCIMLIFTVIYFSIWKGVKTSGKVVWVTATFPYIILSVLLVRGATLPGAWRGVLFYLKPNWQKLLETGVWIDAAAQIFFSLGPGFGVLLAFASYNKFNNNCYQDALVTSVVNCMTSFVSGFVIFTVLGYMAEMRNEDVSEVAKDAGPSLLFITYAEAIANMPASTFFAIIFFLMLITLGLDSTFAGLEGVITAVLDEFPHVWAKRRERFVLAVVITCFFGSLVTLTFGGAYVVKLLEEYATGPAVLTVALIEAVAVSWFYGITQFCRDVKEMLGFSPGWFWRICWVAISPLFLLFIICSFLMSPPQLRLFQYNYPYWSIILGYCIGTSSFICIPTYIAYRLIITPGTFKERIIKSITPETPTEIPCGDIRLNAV
# PROCEDURE TEXT: Radioligand binding experiment for 5-HT transporter ([3H]paroxetine, human platelet membranes)
# CONDITIONS: [3H]paroxetine 0.5 nM, read-out: pIC50 h5HTT (converted)
# Description: The interaction of the compounds according to Formula (I) with hα2-receptors and h5-HT-transporters was assessed in in vitro radioligand binding experiments. […] When equilibrium of binding is reached, the receptor bound radioactivity is separated from the non-bound radioactivity, and the receptor- or transporter-bound activity is counted. The interaction of the test compounds with the receptor is assessed in competition binding experiments. […]
The following compounds are listed with their measured IC50 values.
MEASURED PROPERTY: IC50 (nM)

INSERT INTO measurements (compound, recorded_value) VALUES
  ('COc1cc2c(cc1CN1CCOCC1)OCC1C2=NOC1CN1CCN(C/C(C)=C/c2ccccc2)CC1 (stereo not drawn)', 25.1),
  ('COCCOCOCc1cc2c(cc1OC)C1=NOC(CN3CCN(C/C(C)=C/c4ccccc4)CC3)C1CO2 (stereo not drawn)', 31.6),
  ('COc1cc2c(cc1C)OCC1C2=NOC1CN1CCN(C/C(C)=C/c2ccccc2)CC1 (stereo not drawn)', 20),
  ('COc1cc2c(cc1CO)OCC1C2=NOC1CN1CCN(C/C(C)=C/c2ccccc2)CC1 (stereo not drawn)', 100),
  ('C/C(=C\c1ccccc1)CN1CCN(CC2ON=C3c4ccc(C#N)cc4OCC32)CC1 (stereo not drawn)', 126),
  ('CCN(Cc1cc2c(cc1OC)C1=NOC(CN3CCN(CC(C)=Cc4ccc(F)cc4)CC3)C1CO2)C(C)C (stereo not drawn)', 3.98),
  ('C/C(=C\c1ccccc1)CN1CCN(CC2ON=C3c4ccc(/C=N\O)cc4OCC32)CC1 (stereo not drawn)', 5.01),
  ('CON=Cc1ccc2c(c1)OCC1C2=NOC1CN1CCN(CC(C)=Cc2ccccc2)CC1 (stereo not drawn)', 100),
  ('COc1cc2c(cc1COc1ccccc1)OCC1C2=NOC1CN1CCN(C/C(C)=C/c2ccccc2)CC1 (stereo not drawn)', 200),
  ('COc1cc2c(cc1CN1CCOCC1)OCC1C2=NOC1CN1CCN(CC(C)=Cc2ccccc2)CC1 (single isomer, unassigned) [Compound 21]', 10),
  ('Cc1ccc2c(c1)C1=NOC(CN3CCN(CC=Cc4ccccc4)CC3)C1CO2 (stereo not drawn)', 39.8),
  ('COc1cc2c(cc1COC(C)=O)OCC1C2=NOC1CN1CCN(C/C(C)=C/c2ccccc2)CC1 (stereo not drawn)', 12.6),
  ('COc1cc2c(cc1CN1CCOCC1)OCC1C2=NOC1CN1CCN(CC(C)=Cc2ccccc2)CC1 (single isomer, unassigned) [Compound 20]', 20),
  ('CCNC(=O)c1cc2c(cc1OC)C1=NOC(CN3CCN(C/C(C)=C/c4ccccc4)CC3)C1CO2 (stereo not drawn)', 126),
  ('COc1cc2c(cc1-c1ccccc1)OCC1C2=NOC1CN1CCN(C/C(C)=C/c2ccccc2)CC1 (stereo not drawn)', 158);

The measurements presented in this section are drawn from patent US7465741B2.
